Where these numbers come from: PubChem BioAssay (NCI)

# Test system: NCI-H226 lung
# MEASUREMENT DESCRIPTION: NCI tumour cell line growth inhibition, 48 h
MEASURED METRIC: TGI

Examples with answers:
INSERT INTO assay_data (compound, experimental_result) VALUES
  ('CSc1ncnc2c1cnn2Cc1cn(COCC(O)CO)nn1 (stereo not given)', '> 100 µM'),
  ('COc1ccc(-c2conc2-c2ccccc2)cc1', '> 25.6 µM'),
  ('C=C[C@@]1(C)CC(=O)[C@]2(O)[C@@]3(C)[C@@H](O)CCC(C)(C)[C@@H]3[C@H](O)[C@@H](OC(C)=O)[C@@]2(C)O1', '> 100 µM'),
  ('OCCN(CCO)c1ncnc2c1sc(=S)n2-c1ccccc1', '> 100 µM');

// moving on: another record for TGI
Req: Please report the recorded TGI for Cc1ccc(S(=O)(=O)N2CCc3cc(O)c([N+](=O)[O-])cc32)cc1 .
Resp: > 100 µM

---

# Test system: CAKI-1 renal
# MEASUREMENT DESCRIPTION: NCI tumour cell line growth inhibition, 48 h
MEASURED METRIC: TGI

Examples with answers:
INSERT INTO assay_data (molecule, experimental_result) VALUES
  ('CC(C)(C)[Si](C)(C)OC1CCOC1(O)c1ccccn1 (stereo unspecified)', '> 100 µM'),
  ('O=c1ncccn1C1OC(CO)C(O)C1F (stereo unspecified)', '> 100 µM'),
  ('CCOc1ccccc1NC(=O)CCC(=O)NN', '> 100 µM');

Req: Please report the recorded TGI for CCn1c(-c2nonc2N)nc2c(C#CC(C)(C)O)ncc(OC[C@@H]3CCCN3)c21 .
Resp: > 25 µM

Req: Also Cc1ccc2nc(Nc3ccccc3C)c(Nc3ccccc3C)nc2c1 ?
Resp: > 95.7 µM

Req: Also O=C1[C@H]2ON(c3ccccc3)C(c3cccc([N+](=O)[O-])c3)[C@H]2C(=O)N1c1ccc(Cc2ccc(N3C(=O)[C@@H]4ON(c5ccccc5)C(c5cccc([N+](=O)[O-])c5)[C@@H]4C3=O)cc2)cc1 (stereo partly specified) ?
Resp: > 100 µM

---

# System: MDA-MB-231 breast
# MEASUREMENT DESCRIPTION: NCI tumour cell line growth inhibition, 48 h
Recorded TGI by entry

Examples with answers:
INSERT INTO measurements (chemical_structure, experimental_result) VALUES
  ('Brc1ccc(/C(N=N/C(=N\Sc2ccccc2)c2ccc(Br)cc2)=N/Sc2ccccc2)cc1', '> 100 µM'),
  ('CCOc1cccc(/C=N/NC(=O)Cc2ccc(Nc3ccnc(C(F)(F)F)c3)cc2)c1O', '> 100 µM');

Req: Give TGI (MDA-MB-231 breast) of the following compound: COc1cc(/C=C2\C(=O)Nc3ccc(Br)cc32)cc(OC)c1OC
Resp: > 52.9 µM

Req: Also CN(C)C(=O)/N=C1\SC(=Nc2ccccc2)C(=Nc2ccccc2)N1c1ccc([N+](=O)[O-])cc1 ?
Resp: > 100 µM

---

# Tested on: HOP-92 NSCLC
# MEASUREMENT DESCRIPTION: NCI tumour cell line growth inhibition, 48 h
MEASURED METRIC: TGI

Examples with answers:
INSERT INTO measurements (compound, system_tested, measured_metric, experimental_result) VALUES
  ('c1cc2ccc1C1NCCCN1CCN1CCCNC1c1ccc(cc1)C1NCCCN1CCN1CCCNC21 (stereo not given)', 'HOP-92 NSCLC', 'TGI', '> 100 µM'),
  ('Cc1nn(C(=O)c2ccccc2O)c2c1C(c1ccc([N+](=O)[O-])cc1)SC(N)=N2 (stereo not given)', 'HOP-92 NSCLC', 'TGI', '> 10 µM'),
  ('COc1ccc(C(=C2C(=O)OC(=O)C2=C(C)C)c2ccc(OC)cc2)cc1', 'HOP-92 NSCLC', 'TGI', '> 100 µM'),
  ('CCOC(=O)c1c(-c2ccc(OC)cc2)c(C#N)c(=S)n(C2OC(CO)C(O)C(O)C2O)c1C (stereo not given)', 'HOP-92 NSCLC', 'TGI', '> 100 µM');

Req: Please report the recorded TGI for CCOc1ccccc1NC(=O)CCC(=O)NN .
Resp: > 100 µM

---

Recorded TGI by entry
# System: SF-539 CNS
# MEASUREMENT DESCRIPTION: NCI tumour cell line growth inhibition, 48 h

INSERT INTO measurements (compound, experimental_result) VALUES
  ('COc1ccc(CNC(=O)c2ccc(-c3cc(-c4nnc(C)o4)ccc3C)cc2)cc1', '> 25 µM'),
  ('CCOC(=O)C(NC(=O)CC)(Nc1ccccc1F)C(F)(F)F (stereo not drawn)', '> 100 µM');

// moving on: another record for TGI
Req: Please report the recorded TGI for CC1=[N+]([O-])C2(CCCC2)N(O)C1(C)C .
Resp: > 100 µM

---

# Tested on: NCI-H522 lung
# MEASUREMENT DESCRIPTION: NCI tumour cell line growth inhibition, 48 h
MEASURED METRIC: TGI

INSERT INTO results (compound, measured_metric, experimental_result) VALUES
  ('O=C(/C=C/CC(O)(c1ccccc1)c1ccccc1)Nc1ccccc1Cl', 'TGI', '> 100 µM');

// moving on: another record for TGI
Req: Give TGI (NCI-H522 lung) of the following compound: O=C(O)C(CS)N=Cc1nc(-c2ccccc2)oc1O (stereo not given)
Resp: > 100 µM

---

Recorded TGI by entry
# Test system: T-47D breast
# MEASUREMENT DESCRIPTION: NCI tumour cell line growth inhibition, 48 h

Examples with answers:
INSERT INTO assay_data (molecule, measured_metric, experimental_result) VALUES
  ('O=C1CCCC2=C1CC1=C(CCCC1=O)N2c1ccc(-c2ccccc2)cc1', 'TGI', '> 100 µM'),
  ('O=c1n(CCCN2CCOCC2)nc2n1-c1ccc3ccccc3c1SC2', 'TGI', '> 100 µM');

Req: Give TGI (T-47D breast) of the following molecule: Clc1sc(Cl)c2c1[C@H](Br)C[C@@H]2Cl
Resp: > 100 µM

Req: Also COc1ccc(C(=O)/C=C/c2ccc(OCCCCCCCCCCOc3ccc(/C=C/C(=O)c4ccc(OC)c(OC)c4)cc3)cc2)c(OC)c1 ?
Resp: > 100 µM

Req: Also Nc1ccc2c(SCC(=O)Nc3ccccc3-c3ccccc3NC(=O)CSc3c4ccccc4nc4cc(N)ccc34)c3ccccc3nc2c1 ?
Resp: > 63.3 µM

Req: Also COc1cccc(Nc2nc3c([nH]2)c(=O)n(C)c(=O)n3C)c1 ?
Resp: > 10 µM

Req: Also COc1cc(/C=C2/C(=O)N(C(=O)c3ccccc3O)N=C2C)ccc1O ?
Resp: > 100 µM

Req: Also COc1ccc2c(c1)c(-c1cc(-c3cn(C)c4ccc(OC)cc34)[nH]n1)cn2C ?
Resp: > 100 µM

Req: Also Cc1cccc2c(N)c3cccc(C(=O)NCC[N+](C)(C)[O-])c3nc12 ?
Resp: > 100 µM

Req: Also CC12CCC(=O)[C@@]1(C)CCCC2=O (stereo not given in full) ?
Resp: > 100 µM

---

# Test system: HCT-116 colon
# MEASUREMENT DESCRIPTION: NCI tumour cell line growth inhibition, 48 h
Recorded TGI by entry

Examples with answers:
INSERT INTO results (molecule, experimental_result) VALUES
  ('COc1ccc(C(=C2C(=O)OC(=O)C2=C(C)C)c2ccc(OC)cc2)cc1', '> 100 µM'),
  ('Cc1ccc2c(C(C[N+](=O)[O-])c3ccco3)c(-c3ccccc3)[nH]c2c1 (stereo not given)', '> 100 µM'),
  ('Oc1cccc(-c2nc(N3CCOCC3)c3oc4ncccc4c3n2)c1', '> 100 µM'),
  ('C[C@@](Br)(C(=O)O)[C@H](Br)C(=O)O', '> 100 µM');

Req: Give TGI (HCT-116 colon) of the following molecule: CCC(C)C(NC(=O)C(CCCC[N+](=N)N)NC(=O)C(CCCC[N+](=N)N)NC(=O)c1ccc(OC)cc1)C(=O)NC(CCCC[N+](=N)N)C(=O)N1CCCC1C(=O)NC(CCCCN)C(=O)NC(CC(C)C)C(N)=O (stereo not given)
Resp: > 100 µM

---

# System: CAKI-1 renal
# MEASUREMENT DESCRIPTION: NCI tumour cell line growth inhibition, 48 h
Recorded TGI by entry

Req: Please report the recorded TGI for NCCn1c2c(c3ccccc3c1=O)C(=O)c1ccccc1-2 .
Resp: 0.887 µM

Req: Also Cn1c2ccccc2c2c3c(=O)[nH][nH]c(=O)c3c3c4ccccc4n(C)c3c21 ?
Resp: > 100 µM

Req: Also O=C(O)C12C3C4(C(=O)O)C1C1(C(=O)O)C2C3(C(=O)O)C41 (stereo not drawn) ?
Resp: > 100 µM

Req: Also Nc1ccc2c(SCC(=O)Nc3ccccc3-c3ccccc3NC(=O)CSc3c4ccccc4nc4cc(N)ccc34)c3ccccc3nc2c1 ?
Resp: > 83.5 µM

Req: Also COc1ccc2c(c1)CCC(CN1CCN(CCOC(c3ccccc3)c3ccccc3)CC1)C2O (stereo not drawn) ?
Resp: 31.5 µM

Req: Also O=c1/c(=C/c2ccc3c(c2)OCO3)sc2nnc(Cc3ccccc3)n12 ?
Resp: > 100 µM

Req: Also CN1CCN(CCCOc2ccc3ncnc(Nc4ccc(Oc5cccc(F)c5)c(Cl)c4)c3c2)CC1 ?
Resp: 3.1 µM

Req: Also CN(C)CN1C(=O)/C(=N\n2c(-c3ccncc3)n[nH]c2=S)c2ccccc21 ?
Resp: > 100 µM
